target: Histone-lysine N-methyltransferase EZH2 (Homo sapiens); test: Inhibition of EZH2 Y641F mutant in PRC2 complex (unknown origin) using RKQLATKAARK(Me3)SAPATGGVKKP-NH2 peptide substrate preincubated for 30 mins followed by addition of [3H]-SAM measured after 2 hrs by Topcount scintillation proximity assay
Exercise: state measured IC50 for each of the compounds provided.
Report only the number, with the unit nM understood.

Request: Retrieve IC50 on Histone-lysine N-methyltransferase EZH2 (Homo sapiens); query "COc1cc(C)[nH]c(=O)c1CNC(=O)c1c(C)n([C@H](C)C2CCN(C3COC3)CC2)c2ccccc12"
Result: 1.7

Request: Retrieve IC50 on Histone-lysine N-methyltransferase EZH2 (Homo sapiens); query "COc1cc(C)[nH]c(=O)c1CNC(=O)c1c(C)n([C@H](C)C2CCN(CCC(F)(F)F)CC2)c2ccccc12"
Result: 4.8

Request: Retrieve IC50 on Histone-lysine N-methyltransferase EZH2 (Homo sapiens); query "COc1cc(C)[nH]c(=O)c1CNC(=O)c1c(C)n([C@H](C)C2CCN(C(=O)OC(C)C)CC2)c2ccccc12"
Result: 4.1

Request: Retrieve IC50 on Histone-lysine N-methyltransferase EZH2 (Homo sapiens); query "COc1cc(C)[nH]c(=O)c1CNC(=O)c1c(C)n([C@H](C)C2CCN(C(=O)C(C)C)CC2)c2ccccc12"
Result: 16
